Record set: pKi | UniProt:P35375 | literature, multiple sources.
Sequence (P35375 whole entry): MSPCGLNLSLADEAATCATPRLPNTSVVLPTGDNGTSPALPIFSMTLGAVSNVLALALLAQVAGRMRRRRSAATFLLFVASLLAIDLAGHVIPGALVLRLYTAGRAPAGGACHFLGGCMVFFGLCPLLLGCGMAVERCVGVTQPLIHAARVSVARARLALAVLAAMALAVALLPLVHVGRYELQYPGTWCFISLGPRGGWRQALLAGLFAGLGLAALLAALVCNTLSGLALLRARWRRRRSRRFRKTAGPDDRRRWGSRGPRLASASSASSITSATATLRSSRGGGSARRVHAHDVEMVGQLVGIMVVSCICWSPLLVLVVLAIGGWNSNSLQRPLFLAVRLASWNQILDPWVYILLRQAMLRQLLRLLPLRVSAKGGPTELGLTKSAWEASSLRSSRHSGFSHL
pKi: −log10 of the molar value.

Example compounds with recorded pKi:
[[record]]
compound = "CCCCC[C@@H](/C=C/[C@H]1[C@H](OCC)CC(=O)[C@@H]1C/C=C\\CCCC(=O)O)OCC"
testvalue = "< 5.00"

[[record]]
compound = "CCCCC[C@@H](/C=C/[C@@H]1[C@@H](C/C=C\\CCCC(=O)O)[C@H](Cl)C[C@H]1OC)OC"
testvalue = 7.41

[[record]]
compound = "C=CC1(C(O)C/C=C/[C@H]2[C@H](O)CC(=O)[C@@H]2C/C=C\\CCCC(=O)O)CCC1 (some centres unmarked)"
testvalue = "< 5.00"

[[record]]
compound = "CCCCC[C@@H](/C=C/[C@H]1[C@H](OC)CC(=O)[C@@H]1C/C=C\\CCCC(=O)O)OC"
testvalue = "< 5.00"


Now for the compound whose pKi we want.
Need pKi, item COCc1cccc(C[C@H](O)CC[C@H]2[C@H](O)CC(=O)[C@@H]2CCSCCCC(=O)O)c1
< 5.00
